assay system: recombinant form of Glutaminase 1 (GAC) (Homo sapiens)
Sequence (O94925 137-598 isoform O94925-3 limits assumed): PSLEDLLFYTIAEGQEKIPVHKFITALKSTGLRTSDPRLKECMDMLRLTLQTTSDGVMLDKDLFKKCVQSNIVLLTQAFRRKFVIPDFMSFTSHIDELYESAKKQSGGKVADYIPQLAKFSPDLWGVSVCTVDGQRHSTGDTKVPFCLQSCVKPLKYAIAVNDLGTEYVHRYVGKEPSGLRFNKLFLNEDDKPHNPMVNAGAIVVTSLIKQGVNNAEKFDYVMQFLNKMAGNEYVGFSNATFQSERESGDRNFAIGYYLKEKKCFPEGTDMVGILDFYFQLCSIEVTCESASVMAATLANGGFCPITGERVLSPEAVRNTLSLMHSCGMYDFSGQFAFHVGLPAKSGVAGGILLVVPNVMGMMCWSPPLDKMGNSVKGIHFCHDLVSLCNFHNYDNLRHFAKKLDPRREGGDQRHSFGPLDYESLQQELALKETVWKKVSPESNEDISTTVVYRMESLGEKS
method summary: Recombinant Enzyme Assay (no preincubation);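 also: GDH-coupled GAC activity read as absorbance at 340 nm in kinetic mode over 15 min at 20 °C, slopes compared with a DMSO-only control, lower slope means inhibition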
Type: biochemical
conditions: read-out: GAC Delta N2 IC50 no preinc
readout type: pIC50
Quick note: pIC50 means taking -log10 of the concentration in moles per liter.

Fill in reported pIC50 for this entry: O=C(Cc1ccccc1)Nc1ccc(CCCCc2nnc(NC(=O)C(O)c3cc(F)cc(F)c3)s2)nn1 (stereo not shown) [Compound 351]
6.96

Indicate the recorded pIC50 value for this compound: COc1cc(CC(=O)Nc2nnc(CCCCc3nnc(NC(=O)Cc4cc(OC)cc(OC)c4)s3)s2)cc(OC)c1 [Compound 205]
6.42

Answer with the recorded pIC50 of Nc1cccc(CC(=O)Nc2nnc(CCCCc3nnc(NC(=O)Cc4cccc(N)c4)s3)s2)c1 [Compound 329] only.
6.77

Report pIC50, nothing else, for this compound: COc1cccc(CC(=O)Nc2ccc(CCCCc3nnc(NC(=O)Cc4ccccc4)s3)nn2)c1 [Compound 366]
7.13

# return recorded pIC50 for input NCc1cccc(CC(=O)Nc2nnc(CCCCc3nnc(NC(=O)Cc4cccc(CN)c4)s3)s2)c1 [Compound 325]
6.18

Please report the measured pIC50 for CC(=O)O[C@@H](C(=O)Nc1nnc(CCSCc2nnc(NC(=O)[C@H](OC(C)=O)c3ccccc3)s2)s1)c1ccccc1 [Compound 238]
4.89

Given COc1cccc(CC(=O)Nc2nnc(CCCCc3nnc(NC(=O)Cc4cccc(OC)c4)s3)s2)c1 [Compound 159] , respond with its pIC50.
6.96
